Overview of recorded protein stability index for various variants
B1: GNB5 (parent)
chain: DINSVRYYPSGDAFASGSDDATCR

- Variants of: B1
- Assay text: protein stability index of a GFP-peptide fusion (GPS, HEK-293T) (PSI 1-6); higher = more stable;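 note: lentivirally expressed fusions sorted by FACS into six bins by GFP to DsRed ratio, PSI derived from sequencing read proportions per bin multiplied by bin number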
- Condition set: c terminus: a fixed tail appended
Measured attribute: protein stability index

Variant string	Recorded number
G11M	4.02
P9V	3.62
D20I	3.14
A15C	3.66
A21E	4.38
A21K	3.8
S16Q	3.78
N3F	3.76
C23W	3.14
F14Q	4.44
Y7N	4.26
N3W	3.74
Y8N	4.34
I2S	4.6
Y7I	3.76
R6T	4.82
I2R	4.36
T22G	4.05
D19N	3.2
D19Y	2.62
A13Q	4.4
G11R	3.67
C23N	3.95
S10V	3.73
R6L	3.56
S10R	3.4
A13G	4.03
F14H	3.99
D1R	4.04
D19G	3.79
F14L	4.1
T22S	3.91
F14E	5
C23M	3.62
D12A	3.4
V5R	3.73
S16A	4.04
I2A	4.41
F14N	3.8
S16R	3.77
F14A	4.21
I2M	4.1
S18C	3.88
Y7M	4.12
P9Y	3.35
G11I	3.59
S16L	3.58
N3T	3.77
Y7K	4.35
V5S	4.26
C23V	3.87
R24I	3.77
R24K	4.19
R6W	3.33
I2G	4.54
S4G	3.6
A21I	3.44
V5N	3.46
D20S	3.47
D1V	3.58
Y7D	4.77
D1C	3.44
R6I	3.88
V5M	3.92
G17C	3.66
S10F	3.3
D12L	2.87
F14Y	4.09
S18D	4.24
S10K	3.71
I2D	5.39
F14I	4.49
P9I	2.7
S10W	3.35
F14D	4.16
S4C	3.44
